# Activity listing for each entry below
# Test system: Mus musculus
# EXPERIMENT NOTES: Induction of IFN in BALB/c mice at 0.1 mg/kg, po
# Type: functional

The following compounds have reported results that may help.
CCCCNc1nc(N)c2nc(O)n(Cc3cccc4ccccc34)c2n1: <5 IU/ml
CCCCNc1nc(N)c2nc(O)n(Cc3ccc(Cl)c(Cl)c3)c2n1: <5 IU/ml

Please look at this compound and report its Activity: `Nc1nc(NCc2ccncc2)nc2c1nc(O)n2Cc1ccccc1` <5 IU/ml

Data provenance: ChEMBL document CHEMBL1139013
